- Test system: NCI-H23
- method-summary: NCI tumour cell line growth inhibition, 48 h
Active and inactive are the calls of the source. Cut-off read from the data, not from the text of the source: active = GI50 up to about 1.1 µM and inactive = higher. Peptide text beside a SMILES is read from it. * marks the point of attachment. Boc = CC(C)(C)OC(=O)*
quantity-name: GI50

Examples with their reported GI50 follow.
| compound | experimental-system | value-observed |
| --- | --- | --- |
| C[C@@]1(Br)C[C@@](C)(Cl)[C@@H](Br)CC1/C=C/Cl (stereo not given in full) | NCI-H23 | 28.6 µM (inactive) |
| CCOCC(NC(=O)C(CC(C)C)NC(=O)OC(C)(C)C)C(N)=O (stereo not drawn) (Boc-Leu-Ser(Et)-NH2; configuration not given here) | NCI-H23 | > 100 µM (inactive) |
| C[N+](C)(C)CCCSc1nc2ccccc2[nH]1 | NCI-H23 | > 100 µM (inactive) |
| CC(C)C(NCc1c2ccccc2[n+](C)c2ccccc12)C(=O)O (stereo not given) | NCI-H23 | 8.43 µM (inactive) |
| O=C1/C(=C/c2ccncc2)C(n2cccc2)c2c(Br)sc(Br)c21 (stereo not given) | NCI-H23 | 2.56 µM (inactive) |

For the compound CC1=C[C@H]2C[C@@]3(C)O[C@@H]([C@]4(C)CC[C@H]([C@@H](C)C(=O)O)OO4)CC3C(C)(C)[C@H]2CC1 (stereo not given in full) , report GI50.
1.91 µM (inactive)

Please give measured GI50 of the following entry: O=C(O)C1CCCN1C(=O)c1cc(Cl)ccn1 (stereo not given)
> 100 µM (inactive)

Give a short answer stating reported GI50 for CN(C)CCNC(=O)c1cccc2c1C(=O)c1ccccc1C2=O .
22 µM (inactive)

Supply measured GI50 of NCCSCCC(=O)O in your reply.
> 25.8 µM (inactive)

Return GI50 (reported value) for this compound: CN(C)C1COC2Cc3ccccc3C1O2 (stereo not given)
> 100 µM (inactive)

Kindly indicate its recorded GI50. Item: Cc1oc2c(c1C)S(=O)(=O)C(C#N)C(c1ccccc1)N2 (stereo not given)
69.5 µM (inactive)

Indicate the recorded GI50 value for this compound: CC(=O)OC1C(O)C(C)OC(OC2C(OC(=O)C3CCC4C(C3)OC3(CC(OC(=O)/C=C/c5ccccc5)C(C)CO3)C43CO3)OC(C)C(O)C2OC(C)=O)C1O (stereo not given)
0.0123 µM (active)

Find the measured GI50 of COc1cc(-c2c3c(cc4c2OCO4)[C@@H](Nc2ccc(-c4ccc(-c5ccc(N[C@@H]6c7cc8c(cc7C(c7cc(OC)c(O)c(OC)c7)[C@H]7C(=O)OC[C@H]67)OCO8)cc5)cc4)cc2)[C@H]2COC(=O)[C@@H]2C3)cc(OC)c1O (stereo not given in full) and report it.
5.13 µM (inactive)

Identify measured GI50 corresponding to COc1ccc(C2C(C#N)=C(S)N(C3OC(COC(C)=O)C(OC(C)=O)C(OC(C)=O)C3OC(C)=O)C(c3ccccc3)=C2C(C)=O)cc1 (stereo not given)
> 100 µM (inactive)

* * *

Catalogue of GI50 readings, one per entry.
- System: HT-29
- method-summary: NCI tumour cell line growth inhibition, 48 h
The source made the active and inactive calls. Rule as the data show it: active = GI50 up to about 1.1 µM and inactive = higher.

Examples with answers:
| compound | value-observed |
| --- | --- |
| O=C1C2=C(c3ccccc31)C(c1cccc(Cl)c1)NC(S)=N2 (centres undefined) | > 100 µM (inactive) |
| COc1ccc(C2NCCc3c2[nH]c2ccccc32)cc1 (centres undefined) | > 100 µM (inactive) |

Please indicate GI50 recorded for O=S(=O)(O)c1cc2ccc1/C=C\c1ccc(cc1S(=O)(=O)O)/N=N\c1ccc(c(S(=O)(=O)O)c1)/C=C\c1ccc(cc1S(=O)(=O)O)/N=N\2
> 100 µM (inactive)

Please supply the value of reported GI50 for the item CC1=CC(=O)/C(=C/NC(=S)c2ccccc2)C(=O)O1
> 100 µM (inactive)

* * *

- System: UACC-62
- method-summary: NCI tumour cell line growth inhibition, 48 h
Active and inactive are the calls of the source. Cut-off read from the data, not from the text of the source: active = GI50 up to about 1.1 µM and inactive = higher.
Give one outcome, nothing more. List: active, inactive

| molecule | group |
| --- | --- |
| CC(=O)c1ccc(Nc2c3c(nc4ccccc24)CCCC3)cc1 | inactive |
| COc1ccc(C2C3COc4ccccc4C3=NN2c2ccccc2)cc1 (configuration not stated) | inactive |

Hi team, can someone confirm the assay call for O/N=C\c1c(O)ccc2ccccc12 ?
inactive

Identify the outcome logged in this assay for the molecule shown: CN1c2ccccc2S(=O)(=O)n2c(COc3ccc(Cl)cc3)nnc21
inactive

* * *

- System: UO-31
- method-summary: NCI tumour cell line growth inhibition, 48 h
Activity calls are given as the source filed them. No stated cut-off is given here; in the data, active = GI50 up to about 1.1 µM and inactive = higher.
I would appreciate it if you answered using one of these outcomes: active, inactive

| compound | experimental-system | group |
| --- | --- | --- |
| C[C@@]1(O)C2C3CC4C5C3C1[C@](O)(C42)[C@H]5Br (stereo partly specified) | UO-31 | inactive |
| CSC1=N/C(=C\c2cccs2)C(=O)N1CN1CCCCC1 | UO-31 | inactive |

Any idea what this test logged for O=C(O)C1=NN(c2ccc(S(=O)(=O)O)cc2)C2(C1)C(Cl)C(=O)N2c1nc2ccccc2s1 (stereo unspecified) ?
inactive

Look up the recorded call for COc1ccc(C(=O)Nc2ccn(CCOC(=O)c3ccc(OC)cc3)c(=O)n2)cc1 in this test.
inactive

Hi, sorry to bother you, what did the test record for O=[N+]([O-])c1ccc(Cl)cc1/C=N/C12CC3CC(CC(C3)C1)C2 ?
inactive

Can you look up the reported call for Cc1nc(Cl)nc(Cl)c1C for me?
inactive

Tell me the assay call for O=C1OCC2(CO1)CC1C=CC2C1 (stereo unspecified) please.
inactive

Assay outcome for O=c1c2c3c(sc2nc(S)n1-c1ccccc1)CCCc1ccc([N+](=O)[O-])cc1-3 : what was it?
inactive

* * *

- Tested on: HOP-92
- method-summary: NCI tumour cell line growth inhibition, 48 h
Calls of active or inactive are those of the source. Cut-off read from the data, not from the text of the source: active = GI50 up to about 1.1 µM and inactive = higher.
quantity-name: GI50

Below, each entry is followed by its recorded GI50 result.
| compound | GI50 |
| --- | --- |
| O=C1c2ccccc2C(=O)[C@@]23O[C@@]12C1(Oc2cccc4cccc(c24)O1)[C@@H]1O[C@@H]1[C@@H]3O | 15.8 µM (inactive) |
| CC(=O)c1ccc(Nc2c3c(nc4ccccc24)CCCC3)cc1 | 21.1 µM (inactive) |
| O=C(O)C1CCCCN1C(=O)c1ccccc1 (centres undefined) | > 100 µM (inactive) |

Please give measured GI50 of the following entry: C=C(C)C12OC3(c4ccccc4)OC1C1C4OC4(CO)C(O)C4(O)C(=O)C(C)=CC4C1(O3)C(C)C2OC(=O)/C=C/C=C/c1ccccc1 (centres undefined)
< 0.0005 µM (active)

Check the records and state GI50 for Cc1ccc(S(=O)(=O)n2cc(/C=C/C#N)c(-c3cn(S(=O)(=O)c4ccc(C)cc4)cc3-c3cn(S(=O)(=O)c4ccc(C)cc4)cc3/C=C/C#N)c2)cc1
43.6 µM (inactive)

Entry CC(C)CC(=O)OC[n+]1ccc(-c2c(COC(=O)NC(C)C)c(COC(=O)NC(C)C)c3n2CCC3)cc1 needs its GI50 filled in; supply it.
> 100 µM (inactive)

Supply GI50 value. Item: CCn1c(=O)c2c(=O)[nH][nH]c2c2ccccc21
> 100 µM (inactive)

Please give measured GI50 of the following entry: O=C(c1ccccn1)c1nnn2ccccc12
> 100 µM (inactive)

Identify measured GI50 associated with CCc1c(O)c(O)c(C(C)=O)c2c(O)c(-c3c(C)cc4c(CC)c(O)c(O)c(C(C)=O)c4c3O)c(C)cc12
2.78 µM (inactive)

* * *

Entries and their GI50
- Tested on: KM12
- method-summary: NCI tumour cell line growth inhibition, 48 h
Activity calls are given as the source filed them. Cut-off read from the data, not from the text of the source: active = GI50 up to about 1.1 µM and inactive = higher.

Some entries whose results are on file:
| compound | value-observed |
| --- | --- |
| COc1cccc2c1C(=O)OC2c1cccc2ccccc12 (stereo unspecified) | > 100 µM (inactive) |
| O=C(O)Cc1cc(=O)[nH]c2c1C(=O)CCC2 | > 100 µM (inactive) |
| NC(=O)N/N=C(/CC1C(=O)Oc2ccccc21)c1ccccc1O (stereo unspecified) | 31.9 µM (inactive) |
| CSc1n/c(=N\c2ccccc2)sn1-c1ccccc1 | 17.3 µM (inactive) |
| COc1ccc(N[S+]([O-])c2ccccc2OC)cc1 (stereo unspecified) | 4.98 µM (inactive) |

State its GI50 for this compound: CCOC(=O)CCc1c(C)c2c(OC(C)=O)cc(OC(C)=O)cc2oc1=O
37.4 µM (inactive)

* * *

- Tested on: KM12
- method-summary: NCI tumour cell line growth inhibition, 48 h
Active and inactive are the calls of the source. Cut-off read from the data, not from the text of the source: active = GI50 up to about 1.1 µM and inactive = higher.
quantity-name: GI50

| compound | value-observed |
| --- | --- |
| Cc1ccc(NC(=O)CSc2nc(C)nc3c2sc(=S)n3-c2ccccc2)cc1 | > 10 µM (inactive) |
| N#Cc1c(Cl)c2cc([N+](=O)[O-])ccc2n2c1nc1ccccc12 | 9.91 µM (inactive) |
| CC1=C(C(=O)Nc2cc(F)c(F)cc2F)C(c2ccc(N(C)C)cc2)C(C(=O)Nc2cc(F)c(F)cc2F)=C(C)N1 | 19.9 µM (inactive) |
| [N-]=[N+]=CC(=O)OCC1NC(=O)C(COC(=O)C=[N+]=[N-])NC1=O (stereo not given) | > 100 µM (inactive) |

Supply recorded GI50 for CN(C)CCNC(=O)c1cccc2ccc(-c3cccnc3)nc12 here.
6.5 µM (inactive)
